# protocolDescription: gradient 5% acetonitrile 3 min, to 50% in 2 min, to 85% in 15 min, held 3 min, 100 µL/min
# conditionSet: column: Zorbax Extend-C18 2.1 x 50 mm; eluents: water / acetonitrile, 0.1% formic acid
For each entry below, report its RP-LC retention time value.
Reply with just the number (in s).

Entry "COc1ccc(NC(=O)NCC2(CO)CC2)cc1OC" needs its RP-LC retention time filled in; supply it.
581

Read off the recorded RP-LC retention time for "COc1ccc(CC(=O)N2CCc3cc(-c4ccno4)ccc32)cc1Cl"
1000

Give the measured RP-LC retention time for Fc1ccccc1-c1noc(NCC2CCCO2)n1 (stereo not given)
748

Quickly give me recorded RP-LC retention time for "CC(C)c1nc(N2CCN(c3ccccc3)CC2)ncc1C(=O)O"
868

Answer with the recorded RP-LC retention time for the compound listed here: "Cc1noc(-c2cccc(OC3CN(C(=O)Cc4ccccc4)C3)c2)n1"
854

Quote RP-LC retention time reported for COc1ccc2c(c1)C1(CCN(C(=O)NC(C)(C)C)C1)C(=O)N2 (stereo not given) please.
695

Using known records, supply RP-LC retention time for CCC(C)NC(=O)c1cn(-c2ccc(-c3nc(C4CC4)no3)cn2)cn1 (stereo not given)
883

Give RP-LC retention time for "O=C(NCCn1cnc2cc(C(=O)N3CCCC3)ccc21)Nc1ccc(Br)cc1F"
639

Give reported RP-LC retention time value for "CCCN1C(=O)COc2cc(-c3noc(C(=O)NCCC(C)C)n3)ccc21"
1060

For the compound CCCNC(=O)C1CCCN(c2ccc(SCC(=O)Nc3ccc(C)c(F)c3)nn2)C1 (stereo not given) , give its measured RP-LC retention time value.
718

* * *

# protocolDescription: gradient 5% acetonitrile 3 min, to 50% in 2 min, to 85% in 15 min, held 3 min, 100 µL/min
# conditionSet: column: Zorbax Extend-C18 2.1 x 50 mm; eluents: water / acetonitrile, 0.1% formic acid
property: RP-LC retention time (s)
Lab book: enter the figure in s, no units written.

Return RP-LC retention time for the following compound: "Cc1nnc(-c2cc(C)n(CC(=O)Nc3ccc(C)c(C)c3)c2C)o1"
809

// Input: "COc1ccc(S(=O)(=O)N2CC3CN(C(=O)c4ccc(C#N)cc4)CC(C2)O3)cc1" . Output its RP-LC retention time only.
773

Specify RP-LC retention time for "Cc1ccc(-c2noc(CSc3nc4cc5c(cc4c(=O)n3-c3ccc(F)cc3)OCO5)n2)cc1" and stop.
1200

Find the measured RP-LC retention time of O=C(c1cc(C2CC2)n(C2CCS(=O)(=O)C2)n1)N1CCc2ccccc21 (stereo not given) and report it.
768

Provide RP-LC retention time value for the following compound: "COC(=O)c1nnn(-c2cccc(C)c2C)c1C(=O)OC"
878

* * *

# protocolDescription: gradient 5% acetonitrile 3 min, to 50% in 2 min, to 85% in 15 min, held 3 min, 100 µL/min
# conditionSet: column: Zorbax Extend-C18 2.1 x 50 mm; eluents: water / acetonitrile, 0.1% formic acid
Given measured RP-LC retention time, output Fulfilled if it is greater than or equal to 800 s and Not fulfilled if not.

Given "CCCCC(=O)N1CCc2c(c(C(=O)NCc3ccc4c(c3)OCO4)nn2C)C1" , state whether its RP-LC retention time is at least 800 s.
Not fulfilled

Evaluate "CC1(C)CC(=O)c2cn(-c3ccc(Cl)cc3)c(=O)c(C(=O)O)c2C1" : RP-LC retention time at minimum 800 s?
Fulfilled

Determine whether this compound has RP-LC retention time no lower than 800 s: O=C(Nc1ccccc1)N1CCC(n2c(-c3ccco3)nc3cccnc32)C1 (centres undefined)
Not fulfilled

Please check the record "Cc1cccc(NC(=O)N(C)CCc2noc(COc3cccc(C)c3)n2)c1" and state if its RP-LC retention time is at or above 800 s.
Fulfilled

Is RP-LC retention time at least 800 s? Consider "CCCn1ccc2sc(C)c(C(=O)NCc3ccccc3F)c2c1=O"
Fulfilled

Does "O=C(NC1CC1)c1ccccc1OC1CN(Cc2ccsc2)C1" have a reported RP-LC retention time of at least 800 s?
Not fulfilled

Assess whether reported RP-LC retention time for CCSCCOC(=O)C1=C(C)NC2=C(C(=O)C(C(=O)OC)C(C)C2)C1c1cccc(OC)c1 (centres undefined) sits at 800 s or higher.
Fulfilled

In plain terms: is recorded RP-LC retention time at least 800 s for "O=C1CCC2(CCN1)CCN(S(=O)(=O)c1ccc(Cl)cc1)CC2" ?
Not fulfilled

Kindly determine if RP-LC retention time recorded for "CCn1c(=O)oc2cc(S(=O)(=O)N3CCN(C(=O)c4ccnn4C)CC3)ccc21" is above or exactly 800 s.
Not fulfilled

Dear colleague, could you confirm whether "CC(=O)Oc1cc(-c2cccc(C(F)(F)F)c2)c2oc(=O)sc2c1" has RP-LC retention time at or above 800 s?
Fulfilled

Record "Cc1oc2ncnc(N3CCCCC3)c2c1C(=O)NCCN(Cc1ccco1)C1CCCC1" ; criterion: RP-LC retention time no lower than 800 s. Met?
Fulfilled

Hi, just wondering whether "COc1ccc(-c2cn3cccnc3n2)cc1NS(=O)(=O)c1ccc(C)cc1" shows RP-LC retention time of 800 s or higher.
Not fulfilled

Is the recorded value of RP-LC retention time equal to or greater than 800 s for this compound? "Cc1ccc(CN(CC(=O)N2CCNCC2)C(=O)c2sccc2C)cc1"
Not fulfilled

Textbook exercise: given the entry "O=C(CCc1conc1-c1ccc(F)cc1)NCc1ccccc1" , state whether its RP-LC retention time is greater than or equal to 800 s.
Fulfilled

Please tell me: is the compound "COCCC1(NS(C)(=O)=O)CCN(C(=O)C2(c3ccc(OC)cc3)CC2)CC1" at or over 800 s in terms of RP-LC retention time?
Not fulfilled

Reported RP-LC retention time at or above 800 s? "CCN1CCN(CCNC(=O)c2cc3n(n2)CCCN(Cc2ccc(F)cc2)C3=O)CC1"
Not fulfilled

State whether the measured RP-LC retention time reaches 800 s, counting equality as reaching it, for "O=C(c1ccc(-c2ccsc2)nc1)N1CCN(C2CCCCC2)CC1"
Not fulfilled

Check the entry "COc1ccc(-c2nc(C)cc(C)c2CNS(=O)(=O)c2ccccc2F)cc1" : does RP-LC retention time equal or exceed 800 s?
Not fulfilled

Does RP-LC retention time meet or surpass 800 s for "Cc1cccc(Sc2nccnc2SCC(=O)N2CCN(c3ccccn3)CC2)c1" ?
Not fulfilled

RP-LC retention time >= 800 s for "CCOc1ccc(NC(=O)c2c(Cl)ccc(Cl)c2OC)cc1" ?
Fulfilled

Given the entry CCC(C)C(NC(=O)c1ccsc1)C(=O)Nc1nc2ccccc2[nH]1 (centres undefined) , answer whether its RP-LC retention time meets or surpasses 800 s.
Not fulfilled

Please indicate if the recorded RP-LC retention time for "Cc1nn(CCC(=O)NCCCN2CCc3ccccc3C2)c(=O)c2nn(-c3ccccc3)c(C)c12" meets or exceeds 800 s.
Not fulfilled

Determine whether measured RP-LC retention time meets or exceeds 800 s for "COc1ccc(S(=O)(=O)CCc2noc(C(=O)NCCc3ccc(SC)cc3)n2)cc1"
Fulfilled

Identify whether the reported RP-LC retention time of the following compound is 800 s or greater: CCCCS(=O)CC(CO)NC(=O)/C=C/c1c(C)[nH]c(=O)[nH]c1=O (centres undefined)
Not fulfilled

Dear colleague, could you confirm whether "CCCCn1c(CN2CCCC2)nc2cc(NC(=O)c3ccco3)ccc21" has RP-LC retention time at or above 800 s?
Not fulfilled

Exam item: decide whether the reported RP-LC retention time for "COC(=O)c1cnc2nc(C)ccc2c1Nc1ccc(C)cc1C" is at least 800 s.
Not fulfilled

Determine whether measured RP-LC retention time meets or exceeds 800 s for "O=C(c1ccc(Cl)cc1)N1CCN(c2cnn3c(C4CC4)nnc3c2)CC1"
Not fulfilled

Given "O=C(NCCN1CCN(C(=O)NCCCc2ccccc2)CC1)c1ccc2c(c1)OCO2" , state whether its RP-LC retention time is at least 800 s.
Not fulfilled

Does the reported RP-LC retention time for "Cc1cc(C)cc(NC(=O)N2CCC(c3cc(N)on3)CC2)c1" fall at or above the 800 s mark?
Not fulfilled

State whether the measured RP-LC retention time reaches 800 s, counting equality as reaching it, for "COc1ccc(-c2noc(Cn3ccn(-c4ccccc4OC)c(=O)c3=O)n2)cc1"
Not fulfilled

Check this compound for RP-LC retention time at or above 800 s: "Cc1nn(-c2ccc(N3CCCCC3)nn2)c(C)c1CCC(=O)N1CCN(c2ccccn2)CC1"
Not fulfilled

# check: RP-LC retention time of CCNC(=O)N1CCCC(c2cccc(C(=O)NCc3ccc(C)o3)c2)C1 (centres undefined) is greater than or equal to 800 s
Not fulfilled

Check the entry Cc1cnn(CC(=O)N2CCC3(CCC3O)CC2)c1 (centres undefined) : does RP-LC retention time equal or exceed 800 s?
Not fulfilled
